In this section we review reported MFI values for a set of binders.
molecular target: SARS-CoV-2 Spike Protein (S1 Subunit, Fc Tag) (Sino 40591-V02H) (SARS-CoV-2, UniProt P0DTC2 16-685); assay: Luminex, supernatant
Report as a plain number; the unit MFI is understood.

1) mAb10921 (antibody, V domains shown) VH: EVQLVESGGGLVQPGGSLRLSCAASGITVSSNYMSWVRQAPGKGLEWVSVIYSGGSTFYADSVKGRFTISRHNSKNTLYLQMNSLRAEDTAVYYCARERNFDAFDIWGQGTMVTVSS VL: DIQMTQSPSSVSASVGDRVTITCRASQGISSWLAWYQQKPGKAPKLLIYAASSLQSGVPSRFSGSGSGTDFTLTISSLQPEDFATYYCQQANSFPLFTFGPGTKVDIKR    8960

Now look at this entry.
[in] I'd like to know its MFI. The binder in question is mAb10967 (antibody, V domains shown) VH: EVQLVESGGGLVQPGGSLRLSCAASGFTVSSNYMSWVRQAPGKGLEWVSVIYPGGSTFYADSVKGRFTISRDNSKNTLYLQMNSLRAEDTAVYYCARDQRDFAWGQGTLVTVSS VL: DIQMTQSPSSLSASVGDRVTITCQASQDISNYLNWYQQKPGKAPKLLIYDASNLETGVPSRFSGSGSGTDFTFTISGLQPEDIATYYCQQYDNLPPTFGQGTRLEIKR
[out] 15800

Where do the numbers come from? From patent US20240043504A1.
